The measured values listed here are drawn from a melting point compilation (Tetko et al.; mined from patent text by program, amines drawn as free bases though some values may be those of a salt).

# key: entry, value: melting point

Answered cases to consult:
                                   compound       property  reported_measurement
0    CC1=C(O)C(=O)C(C)C1 (stereo not given)  melting point           92 to 93 °C
1  COc1ccc(Cc2cc3cccc(-c4cccc(C(=O)NCCO)c4)c3s2)cn1  melting point         138 to 139 °C
2  CCOC(=O)c1cnc2[nH]c(=O)ccc2c1Nc1ccc(OC)cc1  melting point         243 to 246 °C
3  CC(Cc1cc2ccccc2[nH]1)(NC(=O)OC1C2CC3CC(C2)CC1C3)C(=O)NCC(NC(=O)CCC(=O)OCc1ccccc1)c1ccccc1 (stereo not given)  melting point         109 to 113 °C
4  CCC(CCCCc1ccccc1)(CC(=O)O)S(=O)(=O)c1ccc(OC)cc1 (stereo not given)  melting point           44 to 46 °C
5  CCOC(=O)COc1ccc(C2OCCCO2)cc1NC(=O)c1ccc(OCCCCc2ccccc2)cc1  melting point                 73 °C
6  CN(C(CCn1c(=O)cc(C(F)(F)F)[nH]c1=O)C(=O)NO)S(=O)(=O)c1ccc(Oc2ccncc2)cc1 (stereo not given)  melting point         116 to 118 °C
7           CC(=O)C=Cc1c(C)c(C)c(C)c2c1OCC2  melting point                116 °C

Fill in: melting point of `O=[N+]([O-])c1ccc(SCl)c(C(Cl)(Cl)Cl)c1` is ___ 56 to 57 °C

And the next one, CN(C)C(=S)N1C=CC=NC1N (stereo not given) ? 134 to 136 °C

And the next one, `COC(=O)[C@@H]1C/C=C/COc2ccc(cc2)C[C@H](NC(=O)OC(C)(C)C)C(=O)N[C@@H](C(C)C)C(=O)N1` ? 105 to 107 °C

And the next one, `C[C@H]1C[C@@](O)(c2cccc(Sc3ccc4c(c3)CC(=O)N4C)c2)CCO1` ? 110 to 111 °C

And the next one, O=S(=O)(c1ccccc1)N1CCCC1c1ccc(F)cc1 (racemic) ? 100 °C

And the next one, CCOC(=O)C1CCc2c(n(C(=O)c3ccc(Cl)cc3)c3ccc(Cl)cc23)C1 (stereo not given) ? 129 to 132 °C

And the next one, `CC1(C)CC(=O)c2c(SCc3ccccc3)sc(-c3cc[nH]n3)c2C1` ? 215 to 218 °C

And the next one, `Cn1c(C(=O)O)c(-c2ccc(F)cc2)c2nccnc2c1=O` ? 247 to 249 °C

And the next one, `CCCCc1nc2c(N)nc3ccccc3c2n1CCNC(=S)Nc1ccc(-c2c3ccc(=O)cc-3oc3cc(O)ccc23)c(C(=O)O)c1` ? > 245 °C

And the next one, `CCCOCCOc1ccc(-c2ccc3c(c2)C=C(C(=O)OC)CCN3c2ccccc2)cc1` ? 117 to 119 °C
